- System: Saccharomyces cerevisiae
- EXPERIMENTAL_DETAILS: Antifungal activity against Saccharomyces cerevisiae ATCC 7754 after 48 hr by broth macrodilution method
- MEASUREMENT_CONDITIONS: ATCC 7754, 48 h
RECORDED_METRIC: MIC (µg/mL)
Unit µg/mL implied. Number only.

MOLECULE	ENDPOINT_RESULT
O=C(O)c1ccccc1	800
O=C(O)c1ccc(O)c(O)c1	3200
O=C(O)c1cc(O)cc(O)c1 [3,5-DIHYDROXYBENZOIC ACID]	3200
CCCOC(=O)c1cc(O)c(O)c(O)c1 [PROPYL GALLATE]	3200
CCCCCCOC(=O)c1ccc(O)c(O)c1 [HEXYL 3,4-DIHYDROXYBENZOATE]	400
CCCCCCCCO	200

Specify MIC for CCCCCCCCCOC(=O)c1cc(O)c(O)c(O)c1 [NONYL GALLATE] and stop.
6.25
